Biological target: D(2) dopamine receptor (Homo sapiens)
Experiment: HTS Assay for Allosteric Antagonists of the Human D2 Dopamine Receptor: Primary Screen for Antagonists; also: 0% is about no effect
Conditions: HEK293 TREx D2 cells, calcium flux, dopamine EC80; at 10 µM; hits give high values
About 6,900 (2%) of roughly 340,000 compounds were called active. Shown is part of a subset that was picked to be rich in actives.
Measured inhibition values are reported for all entries that follow.
readout.kind: inhibition (%)

molecule | number
O=C(N/N=C/c1c[nH]c2ccccc12)c1cc2ccccc2o1 | -9.07
O=C(CCC(=O)c1cccs1)NCc1ccccc1 | 34.9
Cc1ccc(C)c(NC(=O)C(c2ccccc2)N2CCN(CC(=O)NC3CC3)CC2)c1 (configuration not stated) | 5.16
N#C[C@]1(S(=O)(=O)c2ccccc2)C[C@@H]2ON=C(c3cccc(Br)c3)[C@@H]2C1 | 41.5
CCC(C(=O)OCCN(CC)CC)c1ccccc1 (configuration not stated) | 6.37
CC(=O)c1ccc(N2CCN(C(=O)c3ccc(Cl)c(S(=O)(=O)NC4CC4)c3)CC2)c(F)c1 | 8.05
COC(=O)/C(=C1\Oc2ccc(C(C)(C)C)cc2S1)C(F)(F)F | 0.21
O=C(O)C(c1ccccc1)C1(O)CCCCC1 (configuration not stated) | 2.2
COc1cccc(CNC(=O)C(=O)NCCC2CCCCN2S(=O)(=O)c2ccc(C)cc2)c1 (configuration not stated) | -3.22
Cc1ccc2nnn(Cc3cccc(C(C)(C)C)c3O)c2c1 | 6.04
C#CCOCCOCCOCCNc1nc(N2CCN(C(=O)Cn3cc(CCCCN)nn3)CC2)nc(N2CCN(C(=O)[C@H](CCCCN)n3cc(CCC(=O)O)nn3)CC2)n1 | -10.9
O=C1COc2ccc(C(=O)CSc3ccc(Br)cc3)cc2N1 | 11.8
COc1ccc(C(=O)Nc2cc(C)ccc2NC(=O)COc2ccccc2)cc1 | 44.4
COc1ccc(C)cc1NC(=O)CCCN1C(=O)NC(C)(C)C1=O | -9.24
COc1cc(OC)cc(C(=O)NNC(=O)CCOc2ccccc2OC)c1 | 23.6
O=C(CCC(=O)c1cccs1)NC1CCCCCC1 | -3.48
O=S(=O)(Nc1ccc2nc(N3CCOCC3)sc2c1)c1ccccc1 | -2.59
CCOC(=O)c1nnn(-c2nonc2OC)c1-c1ccccc1 | 1.66
CC1CCCCC1NC(=O)COC(=O)Cc1ccc(Cl)cc1 (configuration not stated) | -14.4
CC(=O)Nc1ccc(S(=O)(=O)N2CCn3cccc3C2C)cc1 (configuration not stated) | 2.61
Cc1cccc(OCC(=O)Nc2ccc(C(=O)O)cc2NC(=O)COc2cccc(C)c2)c1 | -10.4
CCOC(=O)C1=C(c2ccccc2)O/C(=C(/C(=O)OC)C(F)(F)F)S1 | 39

// provenance: PubChem BioAssay AID485344
